What inhibition at 10 µM was measured for each of the following?
# Test system: EBOV GP-pseudotyped vesicular stomatitis virus
# Protocol: microbe, parasite or virus in culture
# Format: cell-based, Ebola virus
# Particulars: Zaire ebolavirus, HEK-293T; 10 µM; read-out: EBOV VPEN (% activity)
Give bare numbers, in %.

C[C@]12CC[C@@H]3c4ccc(O)cc4CC[C@H]3[C@@H]1CC[C@@H]2O; 93
CC(C(=O)O)c1ccc2c(c1)[nH]c1ccc(Cl)cc12 (centres unmarked); 94
CNCCC(Oc1ccc(C(F)(F)F)cc1)c1ccccc1 (centres unmarked); 96
CCOC(=O)C1=C(COCCN)NC(C)=C(C(=O)OC)C1c1ccccc1Cl (centres unmarked); 93
Fc1ccc([C@@H]2CCNC[C@H]2COc2ccc3c(c2)OCO3)cc1; 98

I'm hoping you can list inhibition at 10 µM for every molecule here, please.
1. CCN(CC)Cc1cc(Nc2ccnc3cc(Cl)ccc23)ccc1O
2. CCCCOc1cc(C(=O)NCCN(CC)CC)c2ccccc2n1
3. CN1CCN(CCCN2c3ccccc3Sc3ccc(Cl)cc32)CC1
4. CC[C@H]1OC(=O)[C@H](C)[C@@H](O[C@H]2C[C@@](C)(OC)[C@@H](O)[C@H](C)O2)[C@H](C)[C@@H](O[C@@H]2O[C@H](C)C[C@H](N(C)C)[C@H]2O)[C@](C)(O)C[C@@H](C)C(=O)[C@H](C)[C@@H](O)[C@]1(C)O
5. CC(C)(C)NC[C@H](O)COc1ccccc1C1CCCC1
6. CN(C)CCOc1ccc(/C(=C(/CCCl)c2ccccc2)c2ccccc2)cc1

OUTPUT:
99
99
95
96
98
97

* * *

# Protocol: in vivo
# Particulars: male, Balb/c, mouse, ip, 90 mg/kg
Reported Endpoint: AUC

Reported AUC for CCN(CC)CCCC(C)Nc1ccnc2cc(Cl)ccc12 (stereo not shown) [Chloroquine] was 23000 ng·h/mL

* * *

# Protocol: in vivo
# Particulars: male, Balb/c, mouse, ip, 90 mg/kg, Cmax
Reported Endpoint: Cmax (ng/mL)
One number for each entry, in ng/mL.

Entry CCN(CC)CCCC(C)Nc1ccnc2cc(Cl)ccc12 (stereo not shown) [Chloroquine] ; Cmax = 5330

* * *

# Tested on: EBOV GP-pseudotyped vesicular stomatitis virus
# Protocol: microbe, parasite or virus in culture
# Type: cell-based, Ebola virus
# Particulars: read-out: EC50, EBOV Entry
Reported Endpoint: EC50 (µM)
Numbers only, in µM.

CCN(CC)CCCNc1ccnc2cc(Cl)ccc12 [AQ-13, Aminoquinoline-13] yielded EC50 of 4.3

* * *

# System: MARV
# Protocol: organism not typed
# Type: cell-based, Marburg virus
# Particulars: read-out: EC90, MARV Replication
Reported Endpoint: EC90 (µM)
One number for each entry, in µM.

For each listed entry, give its EC90.
1. CCN(CCO)CCCC(C)Nc1ccnc2cc(Cl)ccc12 (stereo not shown) [HCQ, Hydroxychloroquine]
2. CCN(CC)CCCC(C)Nc1ccnc2cc(Cl)ccc12 (stereo not shown)

OUTPUT:
1. 19
2. 21

Go through the list and state EC90 for each entry.
1. CCN(CC)Cc1cc(Nc2ccnc3cc(Cl)ccc23)ccc1O
2. CCN(CC)CCCNc1ccnc2cc(Cl)ccc12

OUTPUT:
16
48

* * *

# System: EBOV
# Protocol: microbe, parasite or virus in culture
# Format: cell-based, Ebola virus
# Particulars: Zaire ebolavirus, read-out: EC50, EBOV Replication
Provide the reported pEC50 of each item.
One number for each entry, as −log10 of the molar value.

Example entries begin here.
CCN(CC)Cc1cc(Nc2ccnc3cc(Cl)ccc23)ccc1O; 5.08
CCN(CC)CCCC(C)Nc1ccnc2cc(Cl)ccc12 (stereo not drawn); 4.80

Proceed to the following item.
Lab book: pEC50 of CCN(CCO)CCCC(C)Nc1ccnc2cc(Cl)ccc12 (stereo not drawn) [HCQ, Hydroxychloroquine] noted as 4.66

* * *

# Test system: Bacillus anthracis
# Protocol: microbe, parasite or virus in culture
# Assay type: cell-based
# Particulars: J774.A1, 15 h, read-out: Bacillus anthracis ICR (% protection)
Reported Endpoint: inhibition at 50 µM (%)
Numbers only, in %.

CN(C)[C@@H]1C(O)=C(C(N)=O)C(=O)[C@@]2(O)C(O)=C3C(=O)c4c(O)cccc4[C@@](C)(O)[C@H]3[C@H](O)[C@@H]12; 94
CCn1cc(C(=O)O)c(=O)c2cc(F)c(N3CCNC(C)C3)c(F)c21 (stereo not drawn); 95
CO/N=C1\CN(c2nc3c(cc2F)c(=O)c(C(=O)O)cn3C2CC2)CC1CN (stereo not drawn); 97
CN(C)[C@@H]1C(O)=C(C(N)=O)C(=O)[C@@]2(O)C(O)=C3C(=O)c4c(O)cccc4[C@@](C)(O)[C@H]3C[C@@H]12; 105
CC[C@H]1OC(=O)[C@H](C)[C@@H](O[C@H]2C[C@@](C)(OC)[C@@H](O)[C@H](C)O2)[C@H](C)[C@@H](O[C@@H]2O[C@H](C)C[C@H](N(C)C)[C@H]2O)[C@](C)(O)C[C@@H](C)C(=O)[C@H](C)[C@@H](O)[C@]1(C)O; 96

Hi team, please reply with inhibition at 50 µM for each item in this list.
1. CCN[C@@H]1C[C@H](N)[C@@H](O[C@H]2OC(CN)=CC[C@H]2N)[C@H](O)[C@H]1O[C@H]1OC[C@](C)(O)[C@H](NC)[C@H]1O
2. CCn1cc(C(=O)O)c(=O)c2cc(F)c(N3CCNCC3)cc21
3. CN(C)c1ccc(O)c2c1C[C@H]1C[C@H]3[C@H](N(C)C)C(O)=C(C(N)=O)C(=O)[C@@]3(O)C(O)=C1C2=O
4. CC[C@H]1OC(=O)[C@H](C)[C@@H](O[C@H]2C[C@@](C)(OC)[C@@H](O)[C@H](C)O2)[C@H](C)[C@@H](O[C@@H]2O[C@H](C)C[C@H](N(C)C)[C@H]2O)[C@](C)(O)C[C@@H](C)[C@@H]2N[C@@H](COCCOC)O[C@H]([C@H]2C)[C@]1(C)O

OUTPUT:
1. 98
2. 105
3. 95
4. 92
